Test: Pharmacokinetics of seven compounds in rat plasma after oral administration of RAF and SAF extracts (UHPLC-MS/MS)
Type: in vivo, male Sprague-Dawley rats
Conditions: male, Sprague-Dawley, rat, plasma, po, 12 g/kg, oral SAF extract 12 g kg^−1, n = 6
Measured Tmax, listed per entry.

| compound | resultUnit | Tmax |
| --- | --- | --- |
| O=C(C=Cc1ccc(O)c(O)c1)OC1CC(O)(C(=O)O)CC(O)C1OC(=O)C=Cc1ccc(O)c(O)c1 (stereo not drawn) | min | 4.68 |
| O=C(/C=C/c1ccc(O)c(O)c1)O[C@@H]1C[C@](O)(C(=O)O)C[C@@H](O)[C@H]1O | min | 6.66 |
| O=C(C=Cc1ccc(O)c(O)c1)OC1C(O)CC(O)(C(=O)O)CC1O (stereo not drawn) | min | 6.18 |

---

Assay: Pharmacokinetics of seven compounds in rat plasma after oral administration of RAF and SAF extracts (UHPLC-MS/MS)
Assay type: in vivo, male Sprague-Dawley rats
Conditions: male, Sprague-Dawley, rat, plasma, po, 12 g/kg, oral SAF extract 12 g kg^−1, n = 6
Field 'label' (enum: t / f). Set to t when AUC(0-t) is strictly under 200 ng·h/mL; else f.

| compound | categoryLabel |
| --- | --- |
| O=C(/C=C/c1ccc(O)c(O)c1)O[C@@H]1C[C@](O)(C(=O)O)C[C@@H](O)[C@H]1O | f |
| O=C(C=Cc1ccc(O)c(O)c1)OC1C(O)CC(O)(C(=O)O)CC1O (centres unmarked) | f |
| O=C(C=Cc1ccc(O)c(O)c1)OC1CC(O)(C(=O)O)CC(O)C1OC(=O)C=Cc1ccc(O)c(O)c1 (centres unmarked) | t |
| COc1ccc(C[C@H]2COC(=O)[C@@H]2Cc2ccc(O[C@@H]3O[C@H](CO)[C@@H](O)[C@H](O)[C@H]3O)c(OC)c2)cc1OC | f |
| O=C(C=Cc1ccc(O)c(O)c1)OC1CC(O)(C(=O)O)CC(OC(=O)C=Cc2ccc(O)c(O)c2)C1O (centres unmarked) | t |

---

Test: Pharmacokinetics of seven compounds in rat plasma after oral administration of RAF and SAF extracts (UHPLC-MS/MS)
Assay type: in vivo, male Sprague-Dawley rats
Details: male, Sprague-Dawley, rat, plasma, po, 12 g/kg, oral RAF extract 12 g kg^−1, n = 6

| compound | AUC(0-t) / ng·h/mL |
| --- | --- |
| O=C(/C=C/c1ccc(O)c(O)c1)O[C@@H]1C[C@](O)(C(=O)O)C[C@@H](O)[C@H]1O | 1070 |
| COc1ccc(C[C@H]2COC(=O)[C@@H]2Cc2ccc(O[C@@H]3O[C@H](CO)[C@@H](O)[C@H](O)[C@H]3O)c(OC)c2)cc1OC | 826 |
| O=C(C=Cc1ccc(O)c(O)c1)OC1CC(O)(C(=O)O)CC(OC(=O)C=Cc2ccc(O)c(O)c2)C1O (centres unmarked) | 219 |
| O=C(C=Cc1ccc(O)c(O)c1)OC1C(O)CC(O)(C(=O)O)CC1O (centres unmarked) | 152 |
| O=C(C=Cc1ccc(O)c(O)c1)OC1CC(O)(C(=O)O)CC(O)C1OC(=O)C=Cc1ccc(O)c(O)c1 (centres unmarked) | 71.5 |

---

Experiment: Pharmacokinetics of seven compounds in rat plasma after oral administration of RAF and SAF extracts (UHPLC-MS/MS)
Type: in vivo, male Sprague-Dawley rats
Conditions: male, Sprague-Dawley, rat, plasma, po, 12 g/kg, oral SAF extract 12 g kg^−1, n = 6

| compound | resultUnit | half-life |
| --- | --- | --- |
| O=C(C=Cc1ccc(O)c(O)c1)OC1CC(O)(C(=O)O)CC(O)C1OC(=O)C=Cc1ccc(O)c(O)c1 (stereo not drawn) | h | 24.3 |
| O=C(/C=C/c1ccc(O)c(O)c1)O[C@@H]1C[C@](O)(C(=O)O)C[C@@H](O)[C@H]1O | h | 4.37 |
| O=C(C=Cc1ccc(O)c(O)c1)OC1C(O)CC(O)(C(=O)O)CC1O (stereo not drawn) | h | 13.5 |
| COc1ccc(C[C@H]2COC(=O)[C@@H]2Cc2ccc(O[C@@H]3O[C@H](CO)[C@@H](O)[C@H](O)[C@H]3O)c(OC)c2)cc1OC | h | 3.83 |
| O=C(C=Cc1ccc(O)c(O)c1)OC1CC(O)(C(=O)O)CC(OC(=O)C=Cc2ccc(O)c(O)c2)C1O (stereo not drawn) | h | 3.27 |
| COc1cc(C[C@H]2C(=O)OC[C@@H]2Cc2ccc(OC)c(OC)c2)ccc1O | h | 9.95 |

---

Experiment: Pharmacokinetics of seven compounds in rat plasma after oral administration of RAF and SAF extracts (UHPLC-MS/MS)
Assay type: in vivo, male Sprague-Dawley rats
Conditions: oral RAF extract 12 g kg^−1, n = 6
measureName: C (max) (ng/mL)

| compound | measureName | resultUnit | quantitativeResult |
| --- | --- | --- | --- |
| O=C(C=Cc1ccc(O)c(O)c1)OC1C(O)CC(O)(C(=O)O)CC1O (stereo not shown) [Cryptochlorogenic acid, cryptochlorogenic acid] | C (max) | ng/mL | 34.80 |
| O=C(C=Cc1ccc(O)c(O)c1)OC1CC(O)(C(=O)O)CC(O)C1OC(=O)C=Cc1ccc(O)c(O)c1 (stereo not shown) [Isochlorogenic acid B, isochlorogenic acid B] | C (max) | ng/mL | 11.33 |
| O=C(C=Cc1ccc(O)c(O)c1)OC1CC(O)(C(=O)O)CC(O)C1OC(=O)C=Cc1ccc(O)c(O)c1 (stereo not shown) [Isochlorogenic acid C, isochlorogenic acid C] | C (max) | ng/mL | 39.89 |
| COc1cc(C[C@H]2C(=O)OC[C@@H]2Cc2ccc(OC)c(OC)c2)ccc1O [Arctigenin, arctigenin] | C (max) | ng/mL | 706.9 |

---

Assay: Pharmacokinetics of seven compounds in rat plasma after oral administration of RAF and SAF extracts (UHPLC-MS/MS)
Format: in vivo, male Sprague-Dawley rats
Conditions: male, Sprague-Dawley, rat, plasma, po, 12 g/kg, oral RAF extract 12 g kg^−1, n = 6
Measured AUC(0-inf), listed per entry.
measureName: AUC(0-inf) (ng·h/mL)

| compound | resultUnit | quantitativeResult |
| --- | --- | --- |
| O=C(/C=C/c1ccc(O)c(O)c1)O[C@@H]1C[C@](O)(C(=O)O)C[C@@H](O)[C@H]1O | ng·h/mL | 1090 |
| COc1ccc(C[C@H]2COC(=O)[C@@H]2Cc2ccc(O[C@@H]3O[C@H](CO)[C@@H](O)[C@H](O)[C@H]3O)c(OC)c2)cc1OC | ng·h/mL | 1070 |
| O=C(C=Cc1ccc(O)c(O)c1)OC1C(O)CC(O)(C(=O)O)CC1O (centres unmarked) | ng·h/mL | 196 |
| O=C(C=Cc1ccc(O)c(O)c1)OC1CC(O)(C(=O)O)CC(OC(=O)C=Cc2ccc(O)c(O)c2)C1O (centres unmarked) | ng·h/mL | 272 |
| O=C(C=Cc1ccc(O)c(O)c1)OC1CC(O)(C(=O)O)CC(O)C1OC(=O)C=Cc1ccc(O)c(O)c1 (centres unmarked) | ng·h/mL | 84.1 |

---

Assay: Pharmacokinetics of seven compounds in rat plasma after oral administration of RAF and SAF extracts (UHPLC-MS/MS)
Assay type: in vivo, male Sprague-Dawley rats
Conditions: male, Sprague-Dawley, rat, plasma, po, 12 g/kg, oral SAF extract 12 g kg^−1, n = 6, read-out: Mean residence time (MRT(0–∞))
Field 'label' (enum: condition met / condition not met). Set to condition met when MRT inf is strictly under 9 h; else condition not met.

| molecule | categoryLabel |
| --- | --- |
| O=C(C=Cc1ccc(O)c(O)c1)OC1C(O)CC(O)(C(=O)O)CC1O (centres unmarked) [Cryptochlorogenic acid, cryptochlorogenic acid] | condition not met |
| O=C(/C=C/c1ccc(O)c(O)c1)O[C@@H]1C[C@](O)(C(=O)O)C[C@@H](O)[C@H]1O [Chlorogenic acid, chlorogenic acid] | condition met |
| O=C(C=Cc1ccc(O)c(O)c1)OC1CC(O)(C(=O)O)CC(OC(=O)C=Cc2ccc(O)c(O)c2)C1O (centres unmarked) [Isochlorogenic acid A, isochlorogenic acid A] | condition met |
| COc1cc(C[C@H]2C(=O)OC[C@@H]2Cc2ccc(OC)c(OC)c2)ccc1O [Arctigenin, arctigenin] | condition not met |

---

Assay: Pharmacokinetics of seven compounds in rat plasma after oral administration of RAF and SAF extracts (UHPLC-MS/MS)
Assay type: in vivo, male Sprague-Dawley rats
Conditions: male, Sprague-Dawley, rat, plasma, po, 12 g/kg, oral RAF extract 12 g kg^−1, n = 6, read-out: Mean residence time (MRT(0–∞))
Measured MRT inf, listed per entry.

| compound | MRT inf, h |
| --- | --- |
| COc1ccc(C[C@H]2COC(=O)[C@@H]2Cc2ccc(O[C@@H]3O[C@H](CO)[C@@H](O)[C@H](O)[C@H]3O)c(OC)c2)cc1OC | 5.33 |
| O=C(C=Cc1ccc(O)c(O)c1)OC1C(O)CC(O)(C(=O)O)CC1O (centres unmarked) | 19.9 |
| COc1cc(C[C@H]2C(=O)OC[C@@H]2Cc2ccc(OC)c(OC)c2)ccc1O | 14.9 |
| O=C(/C=C/c1ccc(O)c(O)c1)O[C@@H]1C[C@](O)(C(=O)O)C[C@@H](O)[C@H]1O | 3.72 |
| O=C(C=Cc1ccc(O)c(O)c1)OC1CC(O)(C(=O)O)CC(OC(=O)C=Cc2ccc(O)c(O)c2)C1O (centres unmarked) | 8.35 |
